# testSystem: hERG channel (Homo sapiens, UniProt Q12809)
# Construct: host or cells: CHO cells
# Sequence (Q12809 whole entry): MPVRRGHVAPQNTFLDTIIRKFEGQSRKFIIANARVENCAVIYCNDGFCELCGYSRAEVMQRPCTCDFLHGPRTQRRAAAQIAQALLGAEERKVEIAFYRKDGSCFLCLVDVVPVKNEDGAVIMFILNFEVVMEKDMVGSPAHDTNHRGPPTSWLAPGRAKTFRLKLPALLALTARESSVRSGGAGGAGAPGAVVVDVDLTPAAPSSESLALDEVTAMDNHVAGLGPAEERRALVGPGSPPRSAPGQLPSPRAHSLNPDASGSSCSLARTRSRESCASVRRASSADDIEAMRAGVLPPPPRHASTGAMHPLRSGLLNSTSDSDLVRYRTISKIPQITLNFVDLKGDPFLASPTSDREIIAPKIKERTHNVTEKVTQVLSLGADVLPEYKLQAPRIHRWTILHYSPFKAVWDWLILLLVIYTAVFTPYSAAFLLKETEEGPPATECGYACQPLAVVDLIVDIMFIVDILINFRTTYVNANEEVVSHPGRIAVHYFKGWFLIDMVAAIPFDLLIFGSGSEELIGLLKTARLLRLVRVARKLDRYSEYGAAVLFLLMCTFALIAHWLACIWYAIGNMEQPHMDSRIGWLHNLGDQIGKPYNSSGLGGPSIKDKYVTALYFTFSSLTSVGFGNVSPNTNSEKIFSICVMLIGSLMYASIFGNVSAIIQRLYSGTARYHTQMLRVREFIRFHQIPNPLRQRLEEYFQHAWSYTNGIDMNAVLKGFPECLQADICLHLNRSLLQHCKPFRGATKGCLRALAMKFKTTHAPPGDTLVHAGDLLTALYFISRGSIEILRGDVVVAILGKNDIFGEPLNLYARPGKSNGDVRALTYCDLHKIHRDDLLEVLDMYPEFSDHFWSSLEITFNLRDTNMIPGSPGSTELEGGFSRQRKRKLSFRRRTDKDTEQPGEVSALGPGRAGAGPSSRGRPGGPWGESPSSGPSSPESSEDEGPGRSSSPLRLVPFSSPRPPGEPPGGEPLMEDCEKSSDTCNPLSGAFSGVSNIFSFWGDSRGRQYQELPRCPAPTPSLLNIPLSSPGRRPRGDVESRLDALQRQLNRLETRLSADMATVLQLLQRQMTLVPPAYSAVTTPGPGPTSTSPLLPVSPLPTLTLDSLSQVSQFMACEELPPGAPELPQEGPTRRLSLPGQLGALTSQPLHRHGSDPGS
# runDescription: hERG channel inhibitory activity, whole-cell patch clamp (auto-patch clamp system)
# Type: cell-based
# reportedConditions: read-out: hERG IC50
reportedMetric: IC50

// solved cases for IC50 follow
O=C(O)CCCN1CCN(C(=O)CNC(=O)/C=C/c2ccc(C(F)(F)F)cc2)C(c2ccccc2)C1 (stereo not shown) : > 30 µM
O=C(/C=C/c1ccc(C(F)(F)F)cc1)NCC(=O)N1CCc2cc([C@@H]3C[C@H]3C(=O)O)ccc2C1 (racemic) [I-172] : > 30 µM

Given the compound C[C@@H]1CN(C(=O)CNC(=O)/C=C/c2ccc(C(F)(F)F)cc2F)[C@@H](c2ccc(F)cc2)CN1CCCC(=O)O and test system hERG channel (Homo sapiens, UniProt Q12809), the measured IC50 is > 30 µM

Given the compound C[C@@H]1CN(C(=O)CNC(=O)/C=C/c2ccc(C(F)(F)F)cc2F)[C@@H](c2ccc3ccccc3c2)CN1CCCC(=O)O and test system hERG channel (Homo sapiens, UniProt Q12809), the measured IC50 is 25.6 µM
